assay-overview: Intrinsic solubility, log 1/S0 of the compound
Assay type: physicochemical
endpoint-label: log1/S0
One number for each entry.

Known log1/S0 results, listed for orientation:
1. Nc1ccc(S(=O)(=O)Nc2ncccn2)cc1 [SULFADIAZINE]	3.67
2. O=C1CN=C(c2ccccc2Cl)c2cc(Cl)ccc2N1 [DELORAZEPAM]	3.97
3. CC(C)C(NC(=O)Cn1c(-c2ccccc2)cc2c(=O)n(CC(N)=O)c(=O)[nH]c2c1=O)C(=O)C(F)(F)F (configuration not stated)	3.6
4. COc1ccc(NS(=O)(=O)c2ccc(N)cc2)nn1 [SULFAMETHOXYPYRIDAZINE]	2.55
5. COc1ncnc(NS(=O)(=O)c2ccc(N)cc2)c1OC [SULFADOXINE]	3.59
6. CN1CCN=C(c2ccccc2)c2cc(Cl)ccc21 [MEDAZEPAM]	4.41
7. CC(C)C(NC(=O)Cn1c(-c2ccccc2)cc2c(=O)n(CCN3CCOCC3)c(=O)[nH]c2c1=O)C(=O)C(F)(F)F (configuration not stated)	3.44
8. COc1cc(NS(=O)(=O)c2ccc(N)cc2)nc(C)n1 [SULFAMETOMIDINE]	3.05

Would you be so kind as to report log1/S0 for each listed record?
1. Cc1cc(NS(=O)(=O)c2ccc(N)cc2)nc(C)n1 [SULFISOMIDINE]
2. CN1C(=O)CN=C(c2ccccc2)c2cc(Cl)ccc21 [DIAZEPAM]
3. CNC(=O)Cn1c(=O)[nH]c2c(=O)n(CC(=O)NC(C(=O)C(F)(F)F)C(C)C)c(-c3ccccc3)cc2c1=O (configuration not stated)
4. COc1ccc(Cn2c(=O)[nH]c3c(=O)n(CC(=O)NC(C(=O)C(F)(F)F)C(C)C)c(-c4ccccc4)cc3c2=O)cc1 (configuration not stated)
5. CCOCCn1c(=O)[nH]c2c(=O)n(CC(=O)NC(C(=O)C(F)(F)F)C(C)C)c(-c3ccccc3)cc2c1=O (configuration not stated)
6. CC(C)C(NC(=O)Cn1c(-c2ccccc2)cc2c(=O)n(C)c(=O)[nH]c2c1=O)C(=O)C(F)(F)F (configuration not stated)

Data returned:
1: 2.78; 2: 3.83; 3: 3.73; 4: 3.4; 5: 4.83; 6: 4.03

Provide log1/S0 values for the following items, in order.
1. COC(OC)n1c(=O)[nH]c2c(=O)n(CC(=O)NC(C(=O)C(F)(F)F)C(C)C)c(-c3ccccc3)cc2c1=O (configuration not stated)
2. COc1cnc(NS(=O)(=O)c2ccc(N)cc2)nc1
3. Cc1noc(NS(=O)(=O)c2ccc(N)cc2)c1C [SULFISOXAZOLE]

Data returned:
3.11
3.63
3.45

====

Please respond with reported logP for every item in the list.
assay-overview: Lipophilicity, log P of the compound
Format: physicochemical
run-conditions: octanol/water

Below, each entry is followed by its recorded logP result.
1. Cc1cc(NS(=O)(=O)c2ccc(N)cc2)nc(C)n1	-0.3
2. COc1ncnc(NS(=O)(=O)c2ccc(N)cc2)c1OC	1.06
3. Nc1ccc(S(=O)(=O)Nc2ncccn2)cc1	-0.13

Below are 2 compounds. Give each one its logP.
1. COc1ccc(NS(=O)(=O)c2ccc(N)cc2)nn1
2. Cc1noc(NS(=O)(=O)c2ccc(N)cc2)c1C

Data returned:
1. 0.4
2. 1.15

====

assay-overview: Dissociation constant, pKa of the compound
Format: physicochemical
endpoint-label: pKa
Give bare numbers.

Data request: Consider the molecule shown here: CC(C)C(NC(=O)Cn1c(-c2ccccc2)cc2c(=O)n(CCN3CCOCC3)c(=O)[nH]c2c1=O)C(=O)C(F)(F)F (stereo unspecified) What is its recorded pKa?
Data returned: 7.04

====

Field: logP. Provide a value for each of the molecules that follow.
assay-overview: Lipophilicity, log P of the compound
Format: physicochemical
run-conditions: octanol/water

Example molecules with recorded logP:
1) COc1cnc(NS(=O)(=O)c2ccc(N)cc2)nc1	0.46
2) Cc1cc(C)nc(NS(=O)(=O)c2ccc(N)cc2)n1 [SULFAMETHAZINE]	0.89

Then there is this molecule:
Data request: // returns reported logP for input Cc1ccnc(NS(=O)(=O)c2ccc(N)cc2)n1 [SULFAMERAZINE]
Data returned: 0.13
